Measured fold difference in affinity vs original of individual entries
target: binding partner of C5A (XPA23); experiment: Biacore
Value expressed in fold; do not type the unit.

binder	value_observed
C5A (XPA23) VH D106G (antibody, V domains shown) VH: EVQLLESGGGLVQPGGSLRLSCAASGFTFSKYFMFWVRQAPGKGLEWVSVISPSGGMTRYADSVKGRFTISRDNSKNTLYLQMNSLRAEDTAVYYCARVGYGGNSGYWGQGTLVTVSS VL: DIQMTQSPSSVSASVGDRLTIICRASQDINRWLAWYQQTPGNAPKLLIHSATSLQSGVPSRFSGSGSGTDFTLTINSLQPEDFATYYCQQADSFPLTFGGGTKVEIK	0.03
C5A (XPA23) VH M57I (antibody, V domains shown) VH: EVQLLESGGGLVQPGGSLRLSCAASGFTFSKYFMFWVRQAPGKGLEWVSVISPSGGITRYADSVKGRFTISRDNSKNTLYLQMNSLRAEDTAVYYCARVGYGGNSDYWGQGTLVTVSS VL: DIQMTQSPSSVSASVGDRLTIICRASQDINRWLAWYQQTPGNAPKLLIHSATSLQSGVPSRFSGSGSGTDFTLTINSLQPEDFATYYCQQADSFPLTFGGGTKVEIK	0.03

Problem: Need fold difference in affinity vs original, item C5A (XPA23) VH Y107T (antibody, V domains shown) VH: EVQLLESGGGLVQPGGSLRLSCAASGFTFSKYFMFWVRQAPGKGLEWVSVISPSGGMTRYADSVKGRFTISRDNSKNTLYLQMNSLRAEDTAVYYCARVGYGGNSDTWGQGTLVTVSS VL: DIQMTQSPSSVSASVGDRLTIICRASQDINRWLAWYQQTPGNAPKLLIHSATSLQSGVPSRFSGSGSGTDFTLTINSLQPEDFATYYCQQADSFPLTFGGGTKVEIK
Solution: 0.83
